- Test system: Aβ1-40 secreted from HEK293 cells stably expressing wildtype human APP695 protein (HEK-APPwt cells)
- assay_notes: Aβ Cell Based Assay (Aβ1-40 secretion, ELISA)
- setup_conditions: Homo sapiens, HEK293, 6 h, 6 hours incubation, reduction of Aβ1-40 secretion
EC50 less than 2 µM is Satisfied; EC50 greater than or equal to 2 µM is Not satisfied.

In [3]: df
Out[3]:
                                   molecule            cat
0  O=C(Nc1nc2cc(-c3cccc(C(F)(F)F)c3)ccc2[nH]1)c1cn2c(C3=CCNCC3)cccc2n1  Not satisfied
1  CN(C)Cc1cccc2nc(C(=O)Nc3nc4cc(-c5cccc(C(F)(F)F)c5)ccc4[nH]3)cn12      Satisfied
2  Cc1cccc2nc(C(=O)Nc3nc4ccc(-c5cccc(C(F)(F)F)c5)cc4n3C)cn12  Not satisfied
3  COCCCNCc1cccc2nc(C(=O)Nc3nc4cc(-c5cccc(C(F)(F)F)c5)ccc4[nH]3)cn12  Not satisfied

Lookup: Hello, is EC50 of the following molecule strictly smaller than 2 µM? "CCN(C)Cc1ccn2cc(C(=O)Nc3nc4cc(-c5cccc(C(F)(F)F)c5)ccc4[nH]3)nc2c1"
Found: Not satisfied

Lookup: Hello, is EC50 of the following molecule strictly smaller than 2 µM? "CN1CCC(Oc2cccc3nc(C(=O)Nc4nc5cc(-c6cccc(C(F)(F)F)c6)ccc5[nH]4)cn23)CC1"
Found: Not satisfied

Lookup: Hello, is EC50 of the following molecule strictly smaller than 2 µM? "CCN(C)Cc1ccc2nc(C(=O)Nc3nc4cc(-c5cccc(C(F)(F)F)c5)ccc4[nH]3)cn2c1"
Found: Not satisfied

Lookup: Hello, is EC50 of the following molecule strictly smaller than 2 µM? "O=C(Nc1nc2cc(-c3cccc(C(F)(F)F)c3)ccc2[nH]1)c1cn2c(CO)cccc2n1"
Found: Not satisfied
